# assay: NCI Yeast Anticancer Drug Screen. Data for the bub3 strain (AID 167)
# study conditions: S. cerevisiae bub3 mutant strain, at 50.0 µM, stronger effect = higher value
This is part of a sample that, as a whole, favours compounds with a hit. Of some 79,000 tested, about 15% had one in any assay.
quantity: growth inhibition (%)

compound	observed measurement
N#CCCN(Cc1ccccc1)C(=S)Nc1cccc(C(F)(F)F)c1	70.1
CN(C)c1ccc(/C=C(\C#N)c2ccc(Cl)cc2Cl)cc1	7
CCCCCCCCCCCCCCCCCC(=O)OCCCC	0.2
CCCOC1OC(CS(=O)(=O)O)C(OC(C)=O)C(OC(C)=O)C1OC(C)=O (stereo not given)	2.4
O=S1OCC#CCOS(=O)OCC#CCO1 (stereo not given)	-3.7
N#CC1CNC(=S)N=C1c1ccccc1 (stereo not given)	0.9
O=C(NC1C=Nc2ccc([N+](=O)[O-])cc2NC1=O)c1ccc(Cl)cc1 (stereo not given)	-1.85
C=CCNC(=O)ON1C(=O)CCC1=O	-22.9
Cc1ccc(NC(=O)OCC(F)(F)C(F)(F)C(F)(F)F)c(NC(=O)OCC(F)(F)C(F)(F)C(F)(F)F)c1	-4.05
OCC(O)COCCCCCCCCCCCCCC1C=CCC1 (stereo not given)	-23.5
CCCS(=O)(=O)N1CC(C)OC(C)C1 (stereo not given)	-10.7
CCCNC(=O)Nc1ccc(Nc2ccccc2)cc1	18.2
COC1/C=C\OC2(C)Oc3c(C)c(O)c4c(c3C2=O)C(=O)C(Br)=C(NC(=O)/C(C)=C\C=C/C(C)C(O)C(C)C(O)C(C)C(OC(C)=O)C1C)C4=O (stereo not given)	14.8
CNC(=O)OCc1c(COC(=O)NC)c2n(c1C)CSC2	-5.45
CCCCCCC(=O)/C=C/c1cc(Cl)cc(Cl)c1OCOC	18.4
O=C(Nc1ccc(Cl)cc1)c1ccc(Cl)cc1Cl	13.7
COc1cc([N+](=O)[O-])cc(C(C)=O)c1O	15.1
CC(=O)OC1CC2C(CCC3CC(C(C)=O)CCC32C)C2CCC(/C(C)=C/C=C(c3ccccc3)c3ccccc3)C12C (stereo not given)	-3.05
O=[N+]([O-])c1ccc(C2=NOC3COC4C=CC=CC4OCC23)cc1 (stereo not given)	5.95
COc1ccc(S(=O)(=O)N(CC(=O)O)c2ccccc2)cc1	-7.75
O=C(OCc1ccccc1CN1CCCC1)c1ccc(Br)cc1	20.1
CN(C)C(=O)CCOc1cccc2ccccc12	-20.8
C[C@@H]1CN[C@@H](C)CN1	-0.6
O=C1NC(=O)C2(CCC(O)C2)c2cc[n+]([O-])cc21 (stereo not given)	-25.6
COc1ccc2cc1Oc1ccc(cc1)CC1c3c(cc(OC)c4c3Oc3cc5c(cc3O4)CCNC5C2)CCN1C (stereo not given)	-38.8
CN(C)CCN1N=Nc2cccc3cccc1c23	30.6
O=C(Cc1c[nH]c2ccccc12)N/N=C/c1ccccc1[N+](=O)[O-]	14.7
NC(=O)C(Cc1ccc(O)cc1)NC(=O)c1cccnc1 (stereo not given)	-9.05
Cn1c(=O)c2c(nc(Br)n2CC(=O)CF)n(C)c1=O	8
Cc1cccc2c1NC(=O)C2=O	-0.65
CN1C(=O)C(O)CC1c1ccccc1C(F)(F)F (stereo not given)	5.05
COc1cc(/C=N/N2CC(=O)N(c3cccc(Cl)c3)CC2=O)cc(OC)c1	-4.65
CCC1(CC)SCc2nc3ccccc3n21	58.8
CC(c1ccccc1)N1COc2cc3c(cc2C1)CN(C(C)c1ccccc1)CO3 (stereo not given)	-1.3
COc1ccc(/C=C/c2c([N+](=O)[O-])c(=O)n(C)c(=O)n2C)cc1	2.65
O=C(NCCCl)Nc1[nH]c(=O)ncc1I	-8.75
CN(C)CC(C)(C)CO	-9.1
CC(=O)OC1CC1(Br)Br (stereo not given)	6.5
OCC1=CC(c2ccccc2)(c2ccccc2)c2ccccc21	95.5
Cc1cc(C)c(C2[C@H]3C(=O)N(c4ccc(Cc5ccc(N6C(=O)[C@@H]7ON(c8ccccc8)C(c8c(C)cc(C)cc8C)[C@@H]7C6=O)cc5)cc4)C(=O)[C@H]3ON2c2ccccc2)c(C)c1 (stereo not given in full)	29.4

From: PubChem BioAssay (NCI)
